// provenance: patent US20150005347A1

Please provide measured % Mortality, Test Example1 Plutella xylostella for the entries that follow.
- Tested on: Plutella xylostella
- Protocol Text: Plutella xylostella control test, cabbage leaf disk foliar spray
- Format: in vivo
- Recorded Conditions: foliar treatment, 100 ppm
In your response, put the unit directly after the numeric value.

For the molecule shown here, FC(F)C(=S)N=c1ccccn1Cc1ccc(Cl)nc1 [Compound 1-21] , give the reported % Mortality, Test Example1 Plutella xylostella.
80%

Also, Fc1ccc(Cn2ccccc2=NC(=S)C(F)(F)F)cn1 [Compound 3-20] please.
55%

Please state, for each entry, its recorded % Mortality, Test Example1 Plutella xylostella.
1. FC(F)(F)C(=S)N=c1ccccn1Cc1ccc(Br)nc1 [Compound 4-20]
2. Fc1cc(Cn2ccccc2=NC(=S)C(F)(F)F)cnc1Cl [Compound 5-20]

["100%", "100%"]
